Measured pKd of individual entries
tested-on: T1, human MSLN-His-Avi (human, UniProt Q13421 296-598, single biotin (BirA) in the biotinylated form)
T1 construct: Monomeric, made in HEK293-6E; Used both immobilised and in solution; also called hMSLN-His-Avi; biotinylated hMSLN-His-Avi
method-notes: SPR (Biacore), MSLN immobilised, mAb^2 injected
Just so you know, pKd here is -log10 of the concentration in molar units; reply with that number alone.

pKd for FS22-053-008-AA/FS28-024 mAb^2 (bispecific antibody, human IgG1, kappa, L234A L235A, V domains shown, also called FS28-024 (in FS22-053-008-AA mAb^2 format); FS28-024 (in CD137 mAb2 format)) VH: EVQLLESGGGLVQPGGSLRLSCAASGFTLSYSSMSWVRQAPGKGLEWVSFITPSTGYTHYADSVKGRFTISRDNSKNTLYLQMNSLRAEDTAVYYCARRALTFDYWGQGTLVTVSS VL: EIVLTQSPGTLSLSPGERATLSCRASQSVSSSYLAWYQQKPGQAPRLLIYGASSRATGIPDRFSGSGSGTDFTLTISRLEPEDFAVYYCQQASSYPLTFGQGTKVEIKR is 9.41

pKd for FS22-053-008-AA/FS28-024-060 mAb^2 (bispecific antibody, human IgG1, kappa, L234A L235A, V domains shown) VH: EVQLLESGGGLVQPGGSLRLSCAASGFTLSYSSMSWVRQAPGKGLEWVSFITPSTGYTHYADSVKGRFTISRDNSKNTLYLQMNSLRAEDTAVYYCARRALWFDYWGQGTLVTVSS VL: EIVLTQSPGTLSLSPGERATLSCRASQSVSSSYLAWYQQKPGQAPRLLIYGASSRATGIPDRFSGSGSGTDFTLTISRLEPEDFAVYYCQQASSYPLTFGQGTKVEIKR is 10.15

Lab note: next binder to report on.
pKd for FS22-053-008-AA/FS28-256-012 mAb^2 (bispecific antibody, human IgG1, kappa, L234A L235A, V domains shown) VH: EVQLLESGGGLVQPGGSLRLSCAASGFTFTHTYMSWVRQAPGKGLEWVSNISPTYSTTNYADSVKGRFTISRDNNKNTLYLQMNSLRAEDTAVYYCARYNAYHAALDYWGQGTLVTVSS VL: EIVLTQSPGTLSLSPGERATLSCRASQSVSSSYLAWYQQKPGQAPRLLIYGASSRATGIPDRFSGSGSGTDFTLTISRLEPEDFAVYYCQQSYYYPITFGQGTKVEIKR is 8.39
